// values below are reported inhibition
TARGET_ENTITY: Adenosine receptor A2b (Homo sapiens) (UniProt P29275)
Sequence (P29275 whole entry): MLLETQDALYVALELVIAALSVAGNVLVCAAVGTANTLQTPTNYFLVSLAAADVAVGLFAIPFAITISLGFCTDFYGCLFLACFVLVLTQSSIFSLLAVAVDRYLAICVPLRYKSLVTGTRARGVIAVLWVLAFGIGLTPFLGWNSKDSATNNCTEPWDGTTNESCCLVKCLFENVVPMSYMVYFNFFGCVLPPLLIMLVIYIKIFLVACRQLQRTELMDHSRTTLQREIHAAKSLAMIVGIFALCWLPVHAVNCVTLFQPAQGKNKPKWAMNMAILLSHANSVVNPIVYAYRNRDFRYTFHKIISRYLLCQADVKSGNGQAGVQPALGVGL
ASSAY_METHOD_TEXT: Inhibition of NECA-stimulated cAMP accumulation in CHO cells expressing human adenosine A2B receptor at 1 uM
Assay type: functional, cell-based
Answer with the figure and its unit, nothing else.

Cn1cc2c(nc(NC(=O)Nc3cc[n+]([O-])cc3)n3nc(-c4ccco4)nc23)n1 : 12%
Cn1cc2c(nc(NC(=O)Nc3ccc4ccccc4n3)n3nc(-c4ccco4)nc23)n1 : 17%
Cc1ccc(NC(=O)Nc2nc3nn(C)cc3c3nc(-c4ccco4)nn23)s1 : 20%
Cn1cc2c(nc(NC(=O)Nc3cc[n+](C)cc3)n3nc(-c4ccco4)nc23)n1 : 6%
Cn1cc2c(nc(NC(=O)Nc3ccco3)n3nc(-c4ccco4)nc23)n1 : 8%

Input line: Please report inhibition for the following compound: `Cc1sccc1NC(=O)Nc1nc2nn(C)cc2c2nc(-c3ccco3)nn12`
Output line: 31%

Input line: In one line, give reported inhibition of the entry `Cn1cc2c(nc(NC(=O)Nc3ccoc3)n3nc(-c4ccco4)nc23)n1` .
Output line: 4%

---

Target chain: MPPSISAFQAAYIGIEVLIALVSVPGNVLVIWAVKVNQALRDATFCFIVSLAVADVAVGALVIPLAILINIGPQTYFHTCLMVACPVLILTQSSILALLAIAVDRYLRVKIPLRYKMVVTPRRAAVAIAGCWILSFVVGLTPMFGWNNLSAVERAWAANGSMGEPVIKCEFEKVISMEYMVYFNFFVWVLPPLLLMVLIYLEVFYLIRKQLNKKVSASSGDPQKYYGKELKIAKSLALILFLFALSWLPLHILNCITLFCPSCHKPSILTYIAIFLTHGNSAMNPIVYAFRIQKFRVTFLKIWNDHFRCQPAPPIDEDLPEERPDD
REPORTED_ENDPOINT: pKi
Just so you know, pKi here is -log10 of the concentration in molar units; reply with that number alone.

Cn1cc2c(nc(NC(=O)Nc3ccc[n+](C)c3)n3nc(-c4ccco4)nc23)n1 : 6.48

Input line: Provide measured pKi value, entry: `Cn1cc2c(nc(NC(=O)Nc3cccc[n+]3C)n3nc(-c4ccco4)nc23)n1`
Output line: 6.40

---

TARGET_ENTITY: Adenosine receptor A1 (Homo sapiens) (UniProt P30542)
ASSAY_METHOD_TEXT: Inhibition of [3H]DPCPX binding to human adenosine A1 receptor expressed in CHO cells at 1 uM
Type: cell-based
REPORTED_ENDPOINT: inhibition (%)
Respond with the bare value in %.

The examples below pair each entry with its known result.
Cc1sccc1NC(=O)Nc1nc2nn(C)cc2c2nc(-c3ccco3)nn12 : 24
Cn1cc2c(nc(NC(=O)Nc3cc[n+](C)cc3)n3nc(-c4ccco4)nc23)n1 : 20
Cn1cc2c(nc(NC(=O)Nc3ccoc3)n3nc(-c4ccco4)nc23)n1 : 20
Cn1cc2c(nc(NC(=O)Nc3ccc4ccccc4n3)n3nc(-c4ccco4)nc23)n1 : 12

Input line: In one line, give reported inhibition of the entry `Cn1cc2c(nc(NC(=O)Nc3cc4ccccc4o3)n3nc(-c4ccco4)nc23)n1` .
Output line: 22

Input line: Supply recorded inhibition for `Cn1cc2c(nc(NC(=O)Nc3ccco3)n3nc(-c4ccco4)nc23)n1` here.
Output line: 25

Input line: Given `Cc1ccc(NC(=O)Nc2nc3nn(C)cc3c3nc(-c4ccco4)nn23)s1` , respond with its inhibition.
Output line: 10

Input line: # return recorded inhibition for input `Cn1cc2c(nc(NC(=O)Nc3cc[n+]([O-])cc3)n3nc(-c4ccco4)nc23)n1`
Output line: 35
